# reported Papp A→B at 2 h, 10 μM; entries follow
# experimental-protocol: Permeability through the monolayer of Caco-2 cells
# Type: in vitro ADME
# conditions-used: human, A→B, 2 h at 37° C.
Reply numerically in ×10⁻⁶ cm/s, unit not repeated.

// known answers, use as guide
smiles: C=CC(=O)N1CCC[C@@H](n2nc(-c3ccc(C(=O)Nc4ccccn4)cc3)c3c(N)ncc(C#N)c32)C1
test-readout: Papp A→B at 2 h, 10 μM
units-symbol: ×10⁻⁶ cm/s
value: 8.2
--
smiles: C=CC(=O)N1CCC[C@@H](n2nc(-c3ccc(Oc4ccncc4C(N)=O)cc3)c3cncc(Cl)c32)C1
test-readout: Papp A→B at 2 h, 10 μM
units-symbol: ×10⁻⁶ cm/s
value: 9.31
--
smiles: C=CC(=O)N1CCC[C@@H](n2nc(-c3ccc(C(=O)Nc4cc(C(F)(F)CC)ccn4)cc3)c3c(N)ncc(Cl)c32)C1
test-readout: Papp A→B at 2 h, 10 μM
units-symbol: ×10⁻⁶ cm/s
value: 9.8
--
smiles: C=CC(=O)N1CCC[C@@H](n2nc(-c3ccc(C(=O)Nc4cc(C(F)(F)F)ccn4)cc3)c3c(N)ncc(Cl)c32)C1
test-readout: Papp A→B at 2 h, 10 μM
units-symbol: ×10⁻⁶ cm/s
value: 8.3
--
smiles: C=CC(=O)N1CCC[C@@H](n2nc(-c3ccc(Oc4cccnc4C#N)cc3)c3cncc(Cl)c32)C1
test-readout: Papp A→B at 2 h, 10 μM
units-symbol: ×10⁻⁶ cm/s
value: 20.2
--
smiles: C=CC(=O)N1CCC[C@@H](n2nc(-c3ccc(C(=O)Nc4ccc(F)cn4)cc3)c3c(N)ncc(Cl)c32)C1
test-readout: Papp A→B at 2 h, 10 μM
units-symbol: ×10⁻⁶ cm/s
value: 6.9
--
smiles: C=CC(=O)N1CCC[C@@H](n2nc(-c3ccc(C(=O)Nc4cc(C(F)(F)CC)ccn4)cc3)c3cncc(F)c32)C1
test-readout: Papp A→B at 2 h, 10 μM
units-symbol: ×10⁻⁶ cm/s
value: 17.8
--
smiles: C=CC(=O)N1CCC[C@@H](n2nc(-c3ccc(Oc4ccncc4)cc3)c3c(N)ncc(Cl)c32)C1
test-readout: Papp A→B at 2 h, 10 μM
units-symbol: ×10⁻⁶ cm/s
value: 52.2

Write down Papp A→B at 2 h, 10 μM measured for item "CC#CC(=O)N1CC(Cn2nc(-c3ccc(Oc4ccncc4)cc3)c3cncc(Cl)c32)C1"
8.3

Write down Papp A→B at 2 h, 10 μM measured for item "C=CC(=O)N1CC[C@H](n2nc(-c3ccc(Oc4ccncc4)cc3)c3cncc(Cl)c32)C1"
9.5

Write down Papp A→B at 2 h, 10 μM measured for item "C=CC(=O)N1CCC[C@@H](n2nc(-c3ccc(Oc4ccncc4)cc3)c3c(N)ncc(C#N)c32)C1"
25.8

Write down Papp A→B at 2 h, 10 μM measured for item "C=CC(=O)N1CCC[C@@H](n2nc(-c3ccc(C(=O)Nc4ccccn4)cc3)c3c(N)ncc(OC)c32)C1"
18.2

Write down Papp A→B at 2 h, 10 μM measured for item "C=CC(=O)N1CCC[C@@H](n2nc(-c3ccc(Oc4ccncc4C#N)cc3)c3cncc(Cl)c32)C1"
20.3

Write down Papp A→B at 2 h, 10 μM measured for item "C=CC(=O)N1CCC[C@@H](n2nc(-c3ccc(C(=O)Nc4ccccn4)cc3)c3cncc(C#N)c32)C1"
8

Write down Papp A→B at 2 h, 10 μM measured for item "C=CC(=O)N1CCC[C@@H](n2nc(-c3ccc(Oc4cccnc4C#N)cc3)c3cncc(C#N)c32)C1"
29.6

Write down Papp A→B at 2 h, 10 μM measured for item "C=CC(=O)N1CCC[C@@H](n2nc(-c3ccc(Oc4ccncc4)cc3)c3cncc(F)c32)C1"
19.2

Write down Papp A→B at 2 h, 10 μM measured for item "C=CC(=O)N1CCC[C@@H](n2nc(-c3ccc(C(=O)Nc4cccc(F)n4)cc3)c3cncc(C#N)c32)C1"
5.9
